Catalogue of compounds with associated IC50
# Target: 5-LOX (Glycine max)
# Sequence (P08170 1-839): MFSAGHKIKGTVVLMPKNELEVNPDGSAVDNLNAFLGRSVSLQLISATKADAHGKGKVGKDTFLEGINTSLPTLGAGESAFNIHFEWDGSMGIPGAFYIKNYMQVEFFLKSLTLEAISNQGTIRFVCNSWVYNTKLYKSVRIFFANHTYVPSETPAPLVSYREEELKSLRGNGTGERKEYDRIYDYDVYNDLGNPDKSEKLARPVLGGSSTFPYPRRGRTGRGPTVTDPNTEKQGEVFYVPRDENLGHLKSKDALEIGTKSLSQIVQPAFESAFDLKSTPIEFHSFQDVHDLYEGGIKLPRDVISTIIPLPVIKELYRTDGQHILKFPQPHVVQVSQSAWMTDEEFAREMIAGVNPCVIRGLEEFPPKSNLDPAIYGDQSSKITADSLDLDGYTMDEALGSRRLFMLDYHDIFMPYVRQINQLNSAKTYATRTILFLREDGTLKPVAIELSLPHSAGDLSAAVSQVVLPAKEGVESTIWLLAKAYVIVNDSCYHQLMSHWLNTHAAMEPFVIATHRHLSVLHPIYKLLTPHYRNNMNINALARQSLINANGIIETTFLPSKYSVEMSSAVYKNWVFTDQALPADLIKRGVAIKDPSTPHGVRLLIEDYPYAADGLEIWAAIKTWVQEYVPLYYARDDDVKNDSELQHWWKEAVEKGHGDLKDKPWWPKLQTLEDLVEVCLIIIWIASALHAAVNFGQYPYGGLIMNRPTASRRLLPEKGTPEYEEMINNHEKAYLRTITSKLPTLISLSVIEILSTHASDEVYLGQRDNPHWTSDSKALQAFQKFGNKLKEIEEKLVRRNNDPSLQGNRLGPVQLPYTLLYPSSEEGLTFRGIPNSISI
# Method Description: 5-LOX inhibition assay
# Format: biochemical, soybean
Endpoint: IC50 (µM)

                                   compound  endpoint  measurement
0  NS(=O)(=O)c1ccc(NCSc2nnc(Cc3ccccc3Nc3c(Cl)cccc3Cl)n2-c2ccc(Cl)c(Cl)c2)cc1      IC50         3.42
1  NS(=O)(=O)c1ccc(N2N=C(c3ccc(NC(=O)Cc4ccccc4Nc4c(Cl)cccc4Cl)cc3)CC2c2ccc(Cl)cc2)cc1 (centres unmarked)      IC50         0.98
2  O=C(CC1CC(=O)N(CCCSc2nnc(Cc3ccccc3Nc3c(Cl)cccc3Cl)n2-c2ccc(Cl)c(Cl)c2)C1=O)c1ccccc1 (centres unmarked)      IC50         48.3
3  Sc1nnc(Cc2ccccc2Nc2c(Cl)cccc2Cl)n1-c1ccc(Cl)c(Cl)c1      IC50         75.5
4  COc1ccc(C(=O)CC2CC(=O)N(CCCSc3nnc(Cc4ccccc4Nc4c(Cl)cccc4Cl)n3-c3ccc(Cl)c(Cl)c3)C2=O)cc1 (centres unmarked)      IC50         51.3

====

# Target: eqBChE (Equus caballus, UniProt P81908)
# Sequence (P81908 whole entry): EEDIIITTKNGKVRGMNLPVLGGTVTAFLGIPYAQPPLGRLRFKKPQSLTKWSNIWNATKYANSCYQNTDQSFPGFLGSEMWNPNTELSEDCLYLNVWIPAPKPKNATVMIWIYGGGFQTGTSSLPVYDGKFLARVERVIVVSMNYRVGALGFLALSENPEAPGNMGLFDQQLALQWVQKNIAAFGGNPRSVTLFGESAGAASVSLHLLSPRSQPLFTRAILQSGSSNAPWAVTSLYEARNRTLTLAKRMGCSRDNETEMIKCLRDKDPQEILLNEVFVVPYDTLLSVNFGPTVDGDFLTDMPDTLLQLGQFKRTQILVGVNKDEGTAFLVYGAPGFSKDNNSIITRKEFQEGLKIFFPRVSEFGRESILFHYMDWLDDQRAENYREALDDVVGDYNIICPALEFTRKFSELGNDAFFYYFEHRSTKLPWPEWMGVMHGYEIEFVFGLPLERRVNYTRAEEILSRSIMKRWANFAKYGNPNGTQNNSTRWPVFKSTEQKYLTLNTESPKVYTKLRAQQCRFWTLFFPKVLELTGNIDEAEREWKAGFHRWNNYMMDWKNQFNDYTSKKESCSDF
# Method Description: BChE inhibition, modified Ellman's method
# Format: biochemical, Equine
Define the label as true when IC50 is strictly less than 3 µM and as false in all remaining cases.

In [3]: df
Out[3]:
                                   molecule  label_value
0  O=C(CC1CC(=O)N(CCCSc2nnc(Cc3ccccc3Nc3c(Cl)cccc3Cl)n2-c2ccc(Cl)c(Cl)c2)C1=O)c1ccccc1 (centres unmarked)        false
1  Sc1nnc(Cc2ccccc2Nc2c(Cl)cccc2Cl)n1-c1ccc(Cl)c(Cl)c1        false
2  COc1ccc(C(=O)CC2CC(=O)N(CCCSc3nnc(Cc4ccccc4Nc4c(Cl)cccc4Cl)n3-c3ccc(Cl)c(Cl)c3)C2=O)cc1 (centres unmarked)        false
3  NS(=O)(=O)c1ccc(N2N=C(c3ccc(NC(=O)Cc4ccccc4Nc4c(Cl)cccc4Cl)cc3)CC2c2ccc(Cl)cc2)cc1 (centres unmarked)         true

====

# Target: hMAO-B (Homo sapiens)
# Sequence (P27338 whole entry): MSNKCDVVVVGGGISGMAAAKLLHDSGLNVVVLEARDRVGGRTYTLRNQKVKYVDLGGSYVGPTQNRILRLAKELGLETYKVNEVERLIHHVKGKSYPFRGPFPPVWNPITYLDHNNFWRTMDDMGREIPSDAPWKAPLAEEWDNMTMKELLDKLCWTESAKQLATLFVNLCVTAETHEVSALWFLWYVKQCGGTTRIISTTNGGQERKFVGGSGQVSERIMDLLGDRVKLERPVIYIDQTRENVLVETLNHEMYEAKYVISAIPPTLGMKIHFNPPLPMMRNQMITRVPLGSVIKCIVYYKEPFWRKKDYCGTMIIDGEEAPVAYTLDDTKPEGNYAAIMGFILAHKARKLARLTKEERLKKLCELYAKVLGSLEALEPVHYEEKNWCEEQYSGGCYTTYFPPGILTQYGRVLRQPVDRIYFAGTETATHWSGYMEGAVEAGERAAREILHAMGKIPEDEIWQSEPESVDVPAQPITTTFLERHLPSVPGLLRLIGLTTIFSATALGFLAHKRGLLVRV
# Method Description: MAO-B inhibition, fluorometric method
# Format: biochemical
# Run Parameters: selectivity index toward hMAO-B
Catalogue of compounds with associated SI (IC50 hMAO-A/IC50 hMAO-B)
Endpoint: SI (IC50 hMAO-A/IC50 hMAO-B)

>>> df
                                   compound                      endpoint  measurement
0  NS(=O)(=O)c1ccc(N2N=C(c3ccc(NC(=O)Cc4ccccc4Nc4c(Cl)cccc4Cl)cc3)CC2c2ccc(Cl)cc2)cc1 (centres unmarked) [Compound 39]  SI (IC50 hMAO-A/IC50 hMAO-B)           61
1  NS(=O)(=O)c1ccc(NCSc2nnc(Cc3ccccc3Nc3c(Cl)cccc3Cl)n2-c2ccc(Cl)c(Cl)c2)cc1 [Compound 15]  SI (IC50 hMAO-A/IC50 hMAO-B)          1.3
2  COc1ccc(C(=O)CC2CC(=O)N(CCCSc3nnc(Cc4ccccc4Nc4c(Cl)cccc4Cl)n3-c3ccc(Cl)c(Cl)c3)C2=O)cc1 (centres unmarked) [Compound 31]  SI (IC50 hMAO-A/IC50 hMAO-B)          193
3  O=C(CC1CC(=O)N(CCCSc2nnc(Cc3ccccc3Nc3c(Cl)cccc3Cl)n2-c2ccc(Cl)c(Cl)c2)C1=O)c1ccccc1 (centres unmarked) [Compound 32]  SI (IC50 hMAO-A/IC50 hMAO-B)         61.1
4  Sc1nnc(Cc2ccccc2Nc2c(Cl)cccc2Cl)n1-c1ccc(Cl)c(Cl)c1 [Compound 12]  SI (IC50 hMAO-A/IC50 hMAO-B)          0.8

====

# Target: hMAO-A (Homo sapiens)
# Sequence (P21397 whole entry): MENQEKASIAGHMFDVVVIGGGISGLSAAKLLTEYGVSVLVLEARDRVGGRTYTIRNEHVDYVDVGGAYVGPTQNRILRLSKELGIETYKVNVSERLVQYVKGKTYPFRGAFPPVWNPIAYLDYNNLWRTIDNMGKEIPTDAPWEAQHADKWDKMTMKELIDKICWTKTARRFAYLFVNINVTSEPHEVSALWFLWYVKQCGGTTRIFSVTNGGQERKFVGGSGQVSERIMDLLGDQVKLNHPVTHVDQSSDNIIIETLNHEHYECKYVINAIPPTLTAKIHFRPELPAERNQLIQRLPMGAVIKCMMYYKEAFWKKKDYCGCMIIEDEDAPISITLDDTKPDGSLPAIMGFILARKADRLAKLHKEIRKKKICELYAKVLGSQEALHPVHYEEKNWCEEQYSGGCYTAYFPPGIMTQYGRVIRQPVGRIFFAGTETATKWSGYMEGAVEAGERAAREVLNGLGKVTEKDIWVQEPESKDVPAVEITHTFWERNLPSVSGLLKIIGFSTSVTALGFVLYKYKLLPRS
# Method Description: MAO-A inhibition, fluorometric method
# Assay type: biochemical
Catalogue of compounds with associated IC50
Endpoint: IC50 (µM)

In [3]: df
Out[3]:
                                   compound  endpoint  measurement
0  COc1ccc(C(=O)CC2CC(=O)N(CCCSc3nnc(Cc4ccccc4Nc4c(Cl)cccc4Cl)n3-c3ccc(Cl)c(Cl)c3)C2=O)cc1 (centres unmarked)      IC50         4.63
1  NS(=O)(=O)c1ccc(NCSc2nnc(Cc3ccccc3Nc3c(Cl)cccc3Cl)n2-c2ccc(Cl)c(Cl)c2)cc1      IC50         1.21
2  NS(=O)(=O)c1ccc(N2N=C(c3ccc(NC(=O)Cc4ccccc4Nc4c(Cl)cccc4Cl)cc3)CC2c2ccc(Cl)cc2)cc1 (centres unmarked)      IC50         0.61
3  O=C(CC1CC(=O)N(CCCSc2nnc(Cc3ccccc3Nc3c(Cl)cccc3Cl)n2-c2ccc(Cl)c(Cl)c2)C1=O)c1ccccc1 (centres unmarked)      IC50         6.48
4  Sc1nnc(Cc2ccccc2Nc2c(Cl)cccc2Cl)n1-c1ccc(Cl)c(Cl)c1      IC50         11.3

====

# Method Description: PAMPA-BBB permeation assay
# Run Parameters: PAMPA, pH 7.4
Endpoint: Papp at 20 h (×10⁻⁶ cm/s)

In [3]: df
Out[3]:
                                   compound  measurement
0  NS(=O)(=O)c1ccc(N2N=C(c3ccc(NC(=O)Cc4ccccc4Nc4c(Cl)cccc4Cl)cc3)CC2c2ccc(Cl)cc2)cc1 (centres unmarked)         7.55
1  NS(=O)(=O)c1ccc(NCSc2nnc(Cc3ccccc3Nc3c(Cl)cccc3Cl)n2-c2ccc(Cl)c(Cl)c2)cc1         6.36

====

# Target: UniProt O42275
# Sequence (O42275 24-633): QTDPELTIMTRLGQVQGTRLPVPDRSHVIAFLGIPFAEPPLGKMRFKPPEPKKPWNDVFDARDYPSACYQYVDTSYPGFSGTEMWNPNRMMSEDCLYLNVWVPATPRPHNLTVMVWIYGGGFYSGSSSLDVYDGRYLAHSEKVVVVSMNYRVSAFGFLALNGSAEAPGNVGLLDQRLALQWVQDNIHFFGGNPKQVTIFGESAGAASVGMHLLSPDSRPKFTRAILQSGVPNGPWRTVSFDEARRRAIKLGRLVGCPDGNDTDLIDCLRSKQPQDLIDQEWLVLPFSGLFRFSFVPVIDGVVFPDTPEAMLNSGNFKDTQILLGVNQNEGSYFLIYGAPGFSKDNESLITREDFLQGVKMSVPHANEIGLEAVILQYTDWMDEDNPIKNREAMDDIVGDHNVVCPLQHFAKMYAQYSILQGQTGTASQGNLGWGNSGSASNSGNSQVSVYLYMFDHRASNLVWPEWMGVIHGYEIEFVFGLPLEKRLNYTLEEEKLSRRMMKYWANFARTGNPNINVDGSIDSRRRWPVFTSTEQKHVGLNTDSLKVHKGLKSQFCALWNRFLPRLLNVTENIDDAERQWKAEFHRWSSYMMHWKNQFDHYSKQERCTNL
# Method Description: AChE inhibition, modified Ellman's method
# Assay type: biochemical, Electrophorous electricus
pIC50: −log10 of the molar value.
Label Satisfied for high-side pIC50 (at or above 7) and Not satisfied for low-side pIC50 (below it).

                                   compound          target    label_value
0  Sc1nnc(Cc2ccccc2Nc2c(Cl)cccc2Cl)n1-c1ccc(Cl)c(Cl)c1  UniProt O42275  Not satisfied
1  NS(=O)(=O)c1ccc(N2N=C(c3ccc(NC(=O)Cc4ccccc4Nc4c(Cl)cccc4Cl)cc3)CC2c2ccc(Cl)cc2)cc1 (centres unmarked)  UniProt O42275      Satisfied
2  O=C(CC1CC(=O)N(CCCSc2nnc(Cc3ccccc3Nc3c(Cl)cccc3Cl)n2-c2ccc(Cl)c(Cl)c2)C1=O)c1ccccc1 (centres unmarked)  UniProt O42275  Not satisfied
